- measurement_description: Drug repurposing screens with cells derived from glioblastoma tumor samples (AID 1345199); note: % is set by controls: 0 for no effect and ±100 for the full control effect; nearly all actives have a fitted effect of over 40% in size
- conditions: GBM patient neurospheres viability, ATP luminescence, 48 h; at 45.9 µM (top of the series); tumour line D
Results filed as inconclusive are left out. Where a SMILES comes first, the peptide text is derived from it. Bridges are numbered along the chain shown (N, C = ends). [ ]: non-standard residue; d: D form. The star is where a group is joined. X1 = CC[C@@H](C)[C@@H](N)C1=N[C@H](C(=O)*)CS1; d(aIle) = CC[C@H](C)[C@@H](N)C(=O)O; dOrn = NCCC[C@@H](N)C(=O)O
result_type: activity, negative = cell killing (%)
Just the number in %, nothing appended.

compound	activity, negative = cell killing / %
CC[C@@H](C)[C@@H](N)C1=N[C@H](C(=O)N[C@@H](CC(C)C)C(=O)N[C@@H](CCC(=O)O)C(=O)N[C@@H](C(=O)N[C@@H]2CCCCNC(=O)[C@@H](CC(N)=O)NC(=O)[C@@H](CC(=O)O)NC(=O)[C@@H](Cc3cnc[nH]3)NC(=O)[C@@H](Cc3ccccc3)NC(=O)[C@@H]([C@H](C)CC)NC(=O)[C@@H](CCCN)NC2=O)[C@@H](C)CC)CS1 (X1-LE[d(aIle)][dK][dOrn][dI][dF][dH][dD][dN]; lactam 4-C)	-10.9

Which activity, negative = cell killing is reported for this compound? CNC(=O)[C@H](Cc1c[nH]c2ccccc12)NC(=O)[C@@H](CC(=O)NO)CC(C)C
-19.3

Note, next up: OCC1(CO)COC(C(Cl)(Cl)Cl)OC1
-7.18

Same question, C[C@H](CCC(=O)O)[C@H]1CC[C@H]2[C@@H]3CC[C@@H]4C[C@H](O)CC[C@]4(C)[C@H]3C[C@H](O)[C@]12C this time
7.18

What would you report for OC[C@H]1O[C@@](CO)(O[C@H]2O[C@H](CO)[C@@H](O)[C@H](O)[C@H]2O)[C@@H](O)[C@@H]1O ?
-14.4

Would you mind doing CC(C)O as well?
-24.5

Repeat for the following compound: O=C(Cc1cccs1)N[C@@H]1C(=O)N2C(C(=O)[O-])=C(C[n+]3ccccc3)CS[C@H]12
8.29

Queued: CCN(CC)C(=S)S
-9.18

# repeat for CN[C@@H]1[C@H](O[C@H]2[C@H](O[C@H]3[C@H](O)[C@@H](O)[C@H](N=C(N)N)[C@@H](O)[C@@H]3N=C(N)N)O[C@@H](C)[C@]2(O)C=O)O[C@@H](CO)[C@H](O)[C@H]1O
-18.9

Now give it for OCC(O)CO too.
-10.7

Likewise for Cc1cccc(C)c1NC(=O)NC1=CCCN1C ?
-0.755

Next entry: OC/C=C/c1ccccc1
-1.36

Same question, O=S(=O)(O)CC(S)CS (configuration not stated) this time
-0.499

Now this one: O=C(O)Cc1nn(Cc2ccc(Br)cc2F)c(=O)c2ccccc12
-12.1

Repeat for the following compound: CCCc1ccc(C(=O)O)cc1
-19.9

Now the compound CC[C@H](CC[C@@H](C)[C@H]1CC[C@H]2[C@@H]3CC=C4C[C@@H](O)CC[C@]4(C)[C@H]3CC[C@]12C)C(C)C
-2.23

And then COc1ccc2cc([C@H](C)CO)ccc2c1 , what is it?
4.49

Now consider O=[n+]1ccn([O-])c2ccccc21 .
-13.6

// repeat for CC(=O)[O][Al][O]C(C)=O and report
-14.6

Next up: Cc1cc(C)c(NC(=O)C[C@H](CC(=O)O)c2cccc3ccccc23)c(C(=O)N2CCC3(CCCC3)CC2)c1
2.34

Try this compound next: CCCCC(O)c1ccccc1 (configuration not stated)
-15

// query: c1ccc(-n2cnnn2)cc1
5.06

====

- System: CP203
- measurement_description: qHTS profiling for inhibitors of Plasmodium falciparum proliferation (AID 504749); note: nearly all actives have a fitted effect of over 60% in size
- conditions: P. falciparum in erythrocytes, SYBR Green DNA, 72 h; series mostly up to 28.7 µM
- Description: NIH National Institute of Allergy and Infectious Diseases [NIAID] NIH Chemical Genomics Center [NCGC] […] Because mature erythrocytes lack DNA, only Plasmodium-derived DNA is detected. NCGC Assay Protocol Summary: The SYBR Green viability assay was adapted from a method described previously (Plouffe et al., 2008). […] The following morning, fluorescence intensity at 485(14) nm excitation and 535(25) nm emission wavelengths was measured on an EnVision (Perkin Elmer) plate reader. […]
Results filed as inconclusive are left out. The source made the active and inactive calls. The call rests on the fitted dose curve; in most records, active means well fitted inhibition curve with a large enough effect; inconclusive means small, poorly fitted or top-dose-only effect; inactive means flat fitted curve, though single readings scatter.
The categories you may choose from are active, inactive

Below, 4 compounds whose answers are already recorded.
compound	study_system	label_value
C=Cc1ccc(S(=O)(=O)O)cc1	CP203	inactive
CC(C)c1ncc([N+](=O)[O-])n1C	CP203	inactive
OCC1(CO)COC(C(Cl)(Cl)Cl)OC1	CP203	inactive
C=C1C(CCl)(CCl)C2(Cl)C(Cl)C(Cl)C1(Cl)C2(Cl)Cl (stereo unspecified)	CP203	active

Short answer needed: outcome of this test for O=C(OCc1ccccc1)c1cccnc1 ?
inactive

Next: O=C(O)CCC/C=C\C[C@@H]1[C@@H](/C=C/[C@@H](O)COc2cccc(Cl)c2)[C@H](O)C[C@@H]1O
inactive

====

- Test system: CP217
- measurement_description: qHTS profiling for inhibitors of Plasmodium falciparum proliferation (AID 504749); note: nearly all actives have a fitted effect of over 60% in size
- conditions: P. falciparum in erythrocytes, SYBR Green DNA, 72 h; series mostly up to 28.7 µM
Results filed as inconclusive are left out. Active and inactive are the calls of the source. The call rests on the fitted dose curve; in most records, active means well fitted inhibition curve with a large enough effect; inconclusive means small, poorly fitted or top-dose-only effect; inactive means flat fitted curve, though single readings scatter.
Lab note: assign the record to one of y (active), n (inactive)

compound	label_value
CC[C@H]1OC(=O)[C@H](C)[C@@H](O[C@H]2C[C@@](C)(OC)[C@@H](O)[C@H](C)O2)[C@H](C)[C@@H](O[C@@H]2O[C@H](C)C[C@H](N(C)C)[C@H]2O)[C@](C)(O)C[C@@H](C)CN(C)[C@H](C)[C@@H](O)[C@]1(C)O	y
Cc1ccc(C(C)(C)c2ccc(C)cc2)cc1	n
CCCCCCCCCCCCCCCCCC(=O)OC[C@@H](O)[C@H]1OC[C@H](O)[C@H]1O	n
CN1C(C(=O)Nc2ccccn2)C(=O)c2sc(Cl)cc2S1(=O)=O (stereo not given)	n
COc1cc(S(C)=O)ccc1-c1nc2ncccc2[nH]1 (stereo not given)	n

Kindly provide the recorded test outcome for the following compound: CCCCCCCCCCCCCCCCCC[N+](C)(C)CCC[Si](OC)(OC)OC
n

Please answer likewise for CCOC(=O)c1c[nH]c2cc(OCC(C)C)c(OCC(C)C)cc2c1=O
y

Consider next the compound C=CC(=O)O in the same way.
n

Moving on to Nc1ncnc2c1ncn2[C@H]1CC[C@@H](CO)O1
n

Would you kindly repeat that for NC(=S)NS(=O)(=O)c1ccc(N)cc1 ?
n

====

- Tested on: TAB113
- measurement_description: qHTS profiling for inhibitors of Plasmodium falciparum proliferation (AID 504749); note: nearly all actives have a fitted effect of over 60% in size
- conditions: P. falciparum in erythrocytes, SYBR Green DNA, 72 h; series mostly up to 28.7 µM
- Experimental: NIH National Institute of Allergy and Infectious Diseases [NIAID] NIH Chemical Genomics Center [NCGC] […] Because mature erythrocytes lack DNA, only Plasmodium-derived DNA is detected. NCGC Assay Protocol Summary: The SYBR Green viability assay was adapted from a method described previously (Plouffe et al., 2008). […] The following morning, fluorescence intensity at 485(14) nm excitation and 535(25) nm emission wavelengths was measured on an EnVision (Perkin Elmer) plate reader. […]
Records with an inconclusive call do not appear. Calls of active or inactive are those of the source. Calls follow the shape of the dose curve; as a rule, active = well fitted inhibition curve with a large enough effect; inconclusive = small, poorly fitted or top-dose-only effect; inactive = flat fitted curve, though single readings scatter.
result_type: outcome

OB(O)O inactive
CO[C@H]1C[C@@H]2CC[C@@H](C)[C@@](O)(O2)C(=O)C(=O)N2CCCC[C@H]2C(=O)O[C@H]([C@H](C)C[C@@H]2CC[C@@H](OC(=O)C(C)(CO)CO)[C@H](OC)C2)CC(=O)[C@H](C)/C=C(\C)[C@@H](O)[C@@H](OC)C(=O)[C@H](C)C[C@H](C)/C=C/C=C/C=C/1C inactive
Cc1cccc(C)c1NC(=O)NC1=CCCN1C inactive
Cc1ccc(C(C)(C)c2ccc(C)cc2)cc1 inactive

====

- System: CP191
- measurement_description: qHTS profiling for inhibitors of Plasmodium falciparum proliferation (AID 504749); note: nearly all actives have a fitted effect of over 60% in size
- conditions: P. falciparum in erythrocytes, SYBR Green DNA, 72 h; series mostly up to 28.7 µM
- Method: NIH National Institute of Allergy and Infectious Diseases [NIAID] NIH Chemical Genomics Center [NCGC] […] Because mature erythrocytes lack DNA, only Plasmodium-derived DNA is detected. NCGC Assay Protocol Summary: The SYBR Green viability assay was adapted from a method described previously (Plouffe et al., 2008). […] The following morning, fluorescence intensity at 485(14) nm excitation and 535(25) nm emission wavelengths was measured on an EnVision (Perkin Elmer) plate reader. […]
Results filed as inconclusive are left out. Activity calls are given as the source filed them. Calls come from the whole dose curve; as a rule, active = well fitted inhibition curve with a large enough effect; inconclusive = small, poorly fitted or top-dose-only effect; inactive = flat fitted curve, though single readings scatter.
Mark one answer only. Choices: TRUE for active, FALSE for inactive

Known results for compounds:
compound	label_value
O=C1CCC(c2ccccc2)(C2CCN(Cc3ccccc3)CC2)C(=O)N1 (stereo unspecified)	FALSE
CC(C)CCCCCCc1ccc(O)cc1	FALSE
O=C(NCCNCC(O)COc1ccc(O)cc1)N1CCOCC1 (stereo unspecified)	FALSE
COC(=O)c1ccccc1O	FALSE
O=C(O)/C=C/c1ccccc1	FALSE

Hey, what did the test say about NCC[C@H](O)C(=O)N[C@@H]1C[C@H](N)[C@@H](O[C@H]2O[C@H](CN)[C@@H](O)[C@H](O)[C@H]2O)[C@H](O)[C@H]1O[C@H]1O[C@H](CO)[C@@H](O)[C@H](N)[C@H]1O ?
FALSE

CCCCC[C@H](O)/C=C/[C@H]1[C@H](O)CC(=O)[C@@H]1C/C=C\CCCC(=O)O , same question.
FALSE

Same question for CC1CC(OC(=O)C(O)c2ccccc2)CC(C)(C)C1 (stereo unspecified) please.
FALSE

Item: c1ccc(-n2cnnn2)cc1
FALSE

Please give the result for O=C1c2ccccc2CN2C(=O)c3ccccc3CN12 too.
FALSE

How about C=CC[C@@H]1/C=C(\C)C[C@H](C)C[C@H](OC)[C@H]2O[C@@](O)(C(=O)C(=O)N3CCCC[C@H]3C(=O)O[C@H](/C(C)=C/[C@@H]3CC[C@@H](O)[C@H](OC)C3)[C@H](C)[C@@H](O)CC1=O)[C@H](C)C[C@@H]2OC ?
TRUE
